tested.on: WT KRAS 10-mer peptide (SEQ ID NO: 30) presented by HLA-A11 on pulsed cells (human, UniProt A*11:01)
test.details: cell-based or functional assay
Entries and their IFN-γ, PBL + pulsed Cos7/A11
Give the number; pg/mL is assumed, so skip it.

[[record]]
binder = "TRAV3-3*01/TRBV4*01 murine anti-KRAS G12V TCR (SEQ ID NOs: 133 and 134) (TCR, V domains shown) V domain 1: GEQVEQRPPHLSVREGDSAVITCTYTDPNSYYFFWYKQEPGASLQLLMKVFSSTEINEGQGFTVLLNKKDKRLSLNLTAAHPGDSAAYFCAVSGGTNSAGNKLTFGIGTRVLVRP V domain 2: ETAVFQTPNYHVTQVGNEVSFNCKQTLGHDTMYWYKQDSKKLLKIMFSYNNKQLIVNETVPRRFSPQSSDKAHLNLRIKSVEPEDSAVYLCASSRDWGPAEQFFGPGTRLTVLE"
attribute_measured = "IFN-γ, PBL + pulsed Cos7/A11"
reported = 36

[[record]]
binder = "TRAV19*01 + TRBV4*01 TCR chain pair (TCR, V domains shown) V domain 1: GQQVKQSSPSLTVQEGGILILNCDYENDMFDYFAWYKKYPDNSPTLLISVRSNVDKREDGRFTVFLNKSGKHFSLHITASQPEDTAVYLCAAGDSGGSNYKLTFGKGTLLTVTP V domain 2: ETAVFQTPNYHVTQVGNEVSFNCKQTLGHDTMYWYKQDSKKLLKIMFSYNNKQLIVNETVPRRFSPQSSDKAHLNLRIKSVEPEDSAVYLCASSRDWGPAEQFFGPGTRLTVLE"
attribute_measured = "IFN-γ, PBL + pulsed Cos7/A11"
reported = 30


[in] Give its IFN-γ, PBL + pulsed Cos7/A11 value. Item: TRAV19*01/TRBV13-1*02 murine anti-KRAS G12V TCR (SEQ ID NOs: 145 and 146) (TCR, V domains shown) V domain 1: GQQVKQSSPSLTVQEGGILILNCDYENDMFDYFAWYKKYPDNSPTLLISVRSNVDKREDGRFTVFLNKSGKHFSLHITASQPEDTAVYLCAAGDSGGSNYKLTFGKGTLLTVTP V domain 2: EAAVTQSPRNKVTVTGGNVTLSCRQTNSHNYMYWYRQDTGHGLRLIHYSYGAGNLQIGDVPDGYKATRTTQEDFFLLLELASPSQTSLYFCASASWGGYAEQFFGPGTRLTVLE
[out] 90

[in] Do the same for TRAV3-3*01 + TRBV13-1*02 TCR chain pair (TCR, V domains shown) V domain 1: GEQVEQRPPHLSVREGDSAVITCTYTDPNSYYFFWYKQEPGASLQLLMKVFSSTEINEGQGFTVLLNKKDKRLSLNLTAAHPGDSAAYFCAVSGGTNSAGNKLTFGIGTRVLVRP V domain 2: EAAVTQSPRNKVTVTGGNVTLSCRQTNSHNYMYWYRQDTGHGLRLIHYSYGAGNLQIGDVPDGYKATRTTQEDFFLLLELASPSQTSLYFCASASWGGYAEQFFGPGTRLTVLE please
[out] 47

The reported numbers originate from patent US20250263462A1.
